test system: T. rhodesiense (Y Tat 1.1); assay: Survival time of CD-1 mice infected with T. rhodesiense (trypanocidal activity); format: in vivo, T. rhodesiense (Y Tat 1.1); CD-1 mice; conditions: single ip dose 0.2 mmol/kg in 0.5 ml phosphate buffered saline containing glucose
outcome.measure: Mean Extension of Life

> print(dat)
                                   molecule         outcome.measure   reading
1  CN(N=O)C(=O)N[C@H]1C(O)O[C@H](CO)[C@@H](O)[C@@H]1O (some centres unmarked)  Mean Extension of Life  4.3 days
2                  CN(C)N=Nc1[nH]cnc1C(N)=O  Mean Extension of Life  6.0 days
3    CNNC [MeNHNHMe, 1,2-dimethylhydrazine]  Mean Extension of Life  4.3 days
4                                    CCNNCC  Mean Extension of Life    0 days
5                 CNNCc1ccc(C(=O)NC(C)C)cc1  Mean Extension of Life  5.0 days

###

Recorded % T/C (average survival time of treated/control animals × 100) by entry
system: L1210 leukemia; experiment: Survival time of mice bearing the L1210 leukemia; type: in vivo; settings: L1210, at optimum effective daily dose, once daily × 6 days
outcome.measure: % T/C (average survival time of treated/control animals × 100) (%)

> print(dat)
                                   compound  unit.text  reading
1  CS(=O)(=O)N(N(CCCl)S(=O)(=O)c1ccc(Cl)cc1)S(C)(=O)=O [Cl-4-C6 H4 SO2 N(CH2 CH2 Cl)N(SO2 Me)2]          %      203
2  CS(=O)(=O)N(N(CCCl)S(=O)(=O)c1ccc(Br)cc1)S(C)(=O)=O [Br-4-C6 H4 SO2 N(CH2 CH2 Cl)N(SO2 Me)2]          %      241
3              CN(N(C)S(C)(=O)=O)S(C)(=O)=O          %      158
4  CN(N(S(C)(=O)=O)S(C)(=O)=O)S(C)(=O)=O [MeSO2 N(Me)N(SO2 Me)2]          %      186

###

Recorded AvΔ Wt, % (average change in body weight from onset to termination of therapy) by entry
system: L1210 leukemia; test: Survival time of mice bearing the L1210 leukemia; format: in vivo; conditions: mouse, in vivo
outcome.measure: AvΔ Wt, % (average change in body weight from onset to termination of therapy)

> print(dat)
                                   compound     test.target  reading
1  CN(N(S(C)(=O)=O)S(C)(=O)=O)S(C)(=O)=O [MeSO2 N(Me)N(SO2 Me)2]  L1210 leukemia    -7.7%
2  CN(NS(C)(=O)=O)S(C)(=O)=O [MeSO2 N(Me)NHSO2 Me]  L1210 leukemia   -10.7%
3  CN(N(C)S(C)(=O)=O)S(C)(=O)=O [MeSO2 N(Me)N(Me)SO2 Me]  L1210 leukemia   -11.3%
4  CS(=O)(=O)OCCN(N(S(C)(=O)=O)S(C)(=O)=O)S(C)(=O)=O [MeSO2 N(CH2 CH2 OSO2 Me)N(SO2 Me)2]  L1210 leukemia    -4.2%

###

tested on: L1210 leukemia; test: Survival time of mice bearing the L1210 leukemia; type: in vivo; conditions: L1210, at optimum effective daily dose, once daily × 6 days
outcome.measure: % T/C (average survival time of treated/control animals × 100)

> print(dat)
                                   molecule  reading
1  CS(=O)(=O)N(CCBr)N(S(C)(=O)=O)S(C)(=O)=O [MeSO2 N(CH2 CH2 Br)N(SO2 Me)2]     213%
2  Cc1ccc(S(=O)(=O)N(CCCl)N(S(C)(=O)=O)S(C)(=O)=O)cc1 [Me-4-C6 H 4 SO2 N(CH2 CH2 Cl)N(SO2 Me)2]     215%
3  CS(=O)(=O)N(CCI)N(S(C)(=O)=O)S(C)(=O)=O [MeSO2 N(CH2 CH2 I)N(SO2 Me)2]     110%
4                 CN(NS(C)(=O)=O)S(C)(=O)=O     180%
5  CS(=O)(=O)N(N(CCCl)S(=O)(=O)c1ccccc1)S(C)(=O)=O [C6 H5 SO2 N(CH2 CH2 Cl)N(SO2 Me)2]     187%
6  CS(=O)(=O)OCCN(N(S(C)(=O)=O)S(C)(=O)=O)S(C)(=O)=O [MeSO2 N(CH2 CH2 OSO2 Me)N(SO2 Me)2]     198%

###

tested on: L1210 leukemia; test: Survival time of mice bearing the L1210 leukemia; type: in vivo; conditions: mice bearing L1210, at optimum effective daily dose
Recorded AvΔ Wt, % (average change in body weight from onset to termination of therapy) by entry
outcome.measure: AvΔ Wt, % (average change in body weight from onset to termination of therapy)

> print(dat)
                                   compound  reading
1  CS(=O)(=O)N(CCBr)N(S(C)(=O)=O)S(C)(=O)=O [MeSO2 N(CH2 CH2 Br)N(SO2 Me)2]    -2.0%
2  COc1ccc(S(=O)(=O)N(CCCl)N(S(C)(=O)=O)S(C)(=O)=O)cc1 [MeO-4-C6 H4 SO2 N(CH2 CH2 Cl)N(SO2 Me)2]    +5.9%
3  CS(=O)(=O)N(N(CCCl)S(=O)(=O)c1ccccc1)S(C)(=O)=O [C6 H5 SO2 N(CH2 CH2 Cl)N(SO2 Me)2]    +0.5%
4  CS(=O)(=O)N(CCI)N(S(C)(=O)=O)S(C)(=O)=O [MeSO2 N(CH2 CH2 I)N(SO2 Me)2]    +8.0%
5  CS(=O)(=O)N(N(CCCl)S(=O)(=O)c1ccc(Br)cc1)S(C)(=O)=O [Br-4-C6 H4 SO2 N(CH2 CH2 Cl)N(SO2 Me)2]    +0.9%
6  CS(=O)(=O)N(CCCl)N(S(C)(=O)=O)S(C)(=O)=O [MeSO2 N(CH2 CH2 Cl)N(SO2 Me)2]    -7.2%
7  CS(=O)(=O)N(N(CCCl)S(=O)(=O)c1ccc(Cl)cc1)S(C)(=O)=O [Cl-4-C6 H4 SO2 N(CH2 CH2 Cl)N(SO2 Me)2]    -3.4%
8  Cc1ccc(S(=O)(=O)N(CCCl)N(S(C)(=O)=O)S(C)(=O)=O)cc1 [Me-4-C6 H 4 SO2 N(CH2 CH2 Cl)N(SO2 Me)2]   -12.0%
